Test context: buffer; pH 7.4; 200.0 µM
# solubility kinetic >= 2 µg/mL gives 1.0, anything below gives 0.0

[
  {
    "Compound": "O=C(CCOc1ccccc1)N1CCN(c2ccc(O)cc2)CC1",
    "Label class": 1.0
  },
  {
    "Compound": "CCC(C)c1ccc(NC(=O)COC(=O)CCNS(=O)(=O)c2cccs2)cc1 (configuration not stated)",
    "Label class": 1.0
  },
  {
    "Compound": "O=C(CCCC(=O)c1ccccc1)NCc1ccccc1",
    "Label class": 1.0
  },
  {
    "Compound": "S=C(Nc1ccccn1)Nc1ccccc1Cl",
    "Label class": 1.0
  },
  {
    "Compound": "COc1ccc(CCNC(=O)CCNC(=O)c2ccco2)cc1",
    "Label class": 1.0
  },
  {
    "Compound": "NC(=O)C1CCN(C(=O)C2CC(=O)N(c3ccc(F)cc3)C2)CC1 (configuration not stated)",
    "Label class": 1.0
  },
  {
    "Compound": "CCCC(=O)NC(c1ccc(Cl)cc1)c1ccc2cccnc2c1O (configuration not stated)",
    "Label class": 0.0
  },
  {
    "Compound": "CC(=O)N1C[C@H](O)C[C@H]1C(=O)O",
    "Label class": 1.0
  },
  {
    "Compound": "CN=C(c1ccco1)n1c(=S)nc(-c2ccco2)n(C)c1=S",
    "Label class": 1.0
  },
  {
    "Compound": "CCOC(=O)c1ccc(-n2c(CC)nc3ccccc3c2=O)cc1",
    "Label class": 0.0
  },
  {
    "Compound": "CCOC(=O)C1CCCN(C(=O)c2cccc3ccccc23)C1 (configuration not stated)",
    "Label class": 1.0
  },
  {
    "Compound": "O=C(O)c1ccc([N+](=O)[O-])c(CS(=O)(=O)c2ccccc2)c1",
    "Label class": 1.0
  }
]
